Test system: human HL60 cells
EXPERIMENT: SWATH-MS proteomics, differential protein representation, akirin2 KO vs WT HL60 cells
Type: cell-based
STATED_CONDITIONS: KO vs WT HL60 cells; sheet "Under-represented in KO"
OUTCOME_MEASURE: Log (Fold Change)
Note: the reply should be a number with no unit written.

Below: 2 molecules and their reported Log (Fold Change).
MOLECULE	Log (Fold Change)
sp¦P27105¦STOM_HUMAN (protein, UniProt P27105 1-288, looked up) Stomatin: MAEKRHTRDSEAQRLPDSFKDSPSKGLGPCGWILVAFSFLFTVITFPISIWMCIKIIKEYERAIIFRLGRILQGGAKGPGLFFILPCTDSFIKVDMRTISFDIPPQEILTKDSVTISVDGVVYYRVQNATLAVANITNADSATRLLAQTTLRNVLGTKNLSQILSDREEIAHNMQSTLDDATDAWGIKVERVEIKDVKLPVQLQRAMAAEAEASREARAKVIAAEGEMNASRALKEASMVITESPAALQLRYLQTLTTIAAEKNSTIVFPLPIDMLQGIIGAKHSHLG	-0.2603
sp¦P20340¦RAB6A_HUMAN (protein, UniProt P20340 2-208, looked up) Ras-related protein Rab-6A: STGGDFGNPLRKFKLVFLGEQSVGKTSLITRFMYDSFDNTYQATIGIDFLSKTMYLEDRTVRLQLWDTAGQERFRSLIPSYIRDSTVAVVVYDITNVNSFQQTTKWIDDVRTERGSDVIIMLVGNKTDLADKRQVSIEEGERKAKELNVMFIETSAKAGYNVKQLFRRVAAALPGMESTQDRSREDMIDIKLEKPQEQPVSEGGCSC	-0.286

Next molecule, Log (Fold Change) to be filled in.
For the molecule shown here, sp¦Q9P035¦HACD3_HUMAN (protein, UniProt Q9P035 1-362, looked up) Very-long-chain …: MENQVLTPHVYWAQRHRELYLRVELSDVQNPAISITENVLHFKAQGHGAKGDNVYEFHLEFLDLVKPEPVYKLTQRQVNITVQKKVSQWWERLTKQEKRPLFLAPDFDRWLDESDAEMELRAKEEERLNKLRLESEGSPETLTNLRKGYLFMYNLVQFLGFSWIFVNLTVRFCILGKESFYDTFHTVADMMYFCQMLAVVETINAAIGVTTSPVLPSLIQLLGRNFILFIIFGTMEEMQNKAVVFFVFYLWSAIEIFRYSFYMLTCIDMDWKVLTWLRYTLWIPLYPLGCLAEAVSVIQSIPIFNETGRFSFTLPYPVKIKVRFSFFLQIYLIMIFLGLYINFRHLYKQRRRRYGQKKKKIH , give the reported Log (Fold Change). -0.3402

Every entry's value here was drawn from paper PMC8298264.
